experiment: Inhibition of Saccharomyces cerevisiae alpha-glucosidase assessed as decrease in release of p-nitrophenol using pNPG as substrate preincubated for 15 min followed by substrate addition and measured after 5 mins by spectrophotometric method
EXPERIMENTAL READOUT: pIC50
As a rule, pIC50 stands for the negative log10 of the concentration, concentration in M.

# annotated cases, reported pIC50 shown
{"COMPOUND": "CC(C)c1ccc(/C=N/NC(=O)Nc2sc3c(c2C#N)CCCC3)cc1", "pIC50": 4.31}
{"COMPOUND": "Cc1cccc(/C=N/NC(=O)Nc2sc3c(c2C#N)CCCC3)c1C", "pIC50": 4.31}
{"COMPOUND": "N#Cc1c(NC(=O)N/N=C/c2ccc([N+](=O)[O-])cc2)sc2c1CCCC2", "pIC50": 4.17}
{"COMPOUND": "N#Cc1c(NC(=O)N/N=C/c2ccc(Oc3ccccc3)cc2)sc2c1CCCC2", "pIC50": 4.66}
{"COMPOUND": "N#Cc1c(NC(=O)N/N=C/c2cccc(O)c2O)sc2c1CCCC2", "pIC50": 4.53}
{"COMPOUND": "N#Cc1c(NC(=O)NCc2ccccc2)sc2c1CCCC2", "pIC50": 4.20}
{"COMPOUND": "CN(C)c1ccc(/C=N/NC(=O)Nc2sc3c(c2C#N)CCCC3)cc1", "pIC50": 4.33}
{"COMPOUND": "N#Cc1c(NC(=O)N/N=C/c2ccc(O)c(O)c2)sc2c1CCCC2", "pIC50": 5.03}
{"COMPOUND": "Cc1ccc(/C=N/NC(=O)Nc2sc3c(c2C#N)CCCC3)cc1C", "pIC50": 4.41}
{"COMPOUND": "N#Cc1c(NC(=O)N/N=C/c2ccc(N3CCCC3)cc2)sc2c1CCCC2", "pIC50": 4.16}

INPUT: I have this compound here, N#Cc1c(NC(=O)N/N=C/c2ccc(N(c3ccccc3)c3ccccc3)cc2)sc2c1CCCC2 , and I need its recorded pIC50.
OUTPUT: 4.87

###

test system: Saccharomyces cerevisiae; assay: Inhibition of Saccharomyces cerevisiae alpha-glucosidase assessed as decrease in release of p-nitrophenol at 100 uM using pNPG as substrate preincubated for 15 min followed by substrate addition and measured after 5 mins by spectrophotometric method relative to control; conditions: time 20.0 min
Where inhibition equals or exceeds 40%, the correct label is met; where it does not, the label is not met.

Study these solved cases before continuing.
{"SMILES NOTATION": "COc1ccc(/C=N/NC(=O)Nc2sc3c(c2C#N)CCCC3)cc1", "LABEL VALUE": "not met"}
{"SMILES NOTATION": "Cc1cccc(/C=N/NC(=O)Nc2sc3c(c2C#N)CCCC3)c1C", "LABEL VALUE": "met"}
{"SMILES NOTATION": "Cc1ccc(/C=N/NC(=O)Nc2sc3c(c2C#N)CCCC3)cc1C", "LABEL VALUE": "met"}
{"SMILES NOTATION": "N#Cc1c(NC(=O)N/N=C/c2ccccc2O)sc2c1CCCC2", "LABEL VALUE": "met"}
{"SMILES NOTATION": "COc1ccc(/C=N/NC(=O)Nc2sc3c(c2C#N)CCCC3)cc1O", "LABEL VALUE": "not met"}
{"SMILES NOTATION": "N#Cc1c(NC(=O)N/N=C/c2ccc(O)c(O)c2)sc2c1CCCC2", "LABEL VALUE": "met"}

INPUT: Record Cc1cc(/C=N/NC(=O)Nc2sc3c(c2C#N)CCCC3)cc(C)c1O ; criterion: inhibition no lower than 40%. Met?
OUTPUT: not met

INPUT: Next entry: N#Cc1c(NC(=O)N/N=C/c2ccc(N(c3ccccc3)c3ccccc3)cc2)sc2c1CCCC2
OUTPUT: met

INPUT: Request: N#Cc1c(NC(=O)N/N=C/c2ccc(Oc3ccccc3)cc2)sc2c1CCCC2
OUTPUT: met

INPUT: Now consider COc1cc(/C=N/NC(=O)Nc2sc3c(c2C#N)CCCC3)cc(OC)c1 .
OUTPUT: not met

INPUT: What do we get for CC(C)c1ccc(/C=N/NC(=O)Nc2sc3c(c2C#N)CCCC3)cc1 ?
OUTPUT: met

INPUT: Lookup N#Cc1c(NC(=O)N/N=C/c2cc(O)cc(O)c2)sc2c1CCCC2
OUTPUT: met

INPUT: Again, but for N#Cc1c(NC(=O)N/N=C/c2ccc(OCc3ccccc3)cc2)sc2c1CCCC2
OUTPUT: met

###

tested on: Saccharomyces cerevisiae; test: Inhibition of Saccharomyces cerevisiae alpha-glucosidase assessed as decrease in release of p-nitrophenol at 100 uM using pNPG as substrate preincubated for 15 min followed by substrate addition and measured after 5 mins by spectrophotometric method relative to control; conditions: time 20.0 min
EXPERIMENTAL READOUT: inhibition (%)
Response body: numeric value in %, unit text excluded.

{"SMILES NOTATION": "N#Cc1c(NC(=O)N/N=C/c2ccc(O)cc2)sc2c1CCCC2", "EXPERIMENTAL READOUT": "inhibition", "READOUT NUMBER": 81.7}
{"SMILES NOTATION": "CN(C)c1ccc(/C=N/NC(=O)Nc2sc3c(c2C#N)CCCC3)cc1", "EXPERIMENTAL READOUT": "inhibition", "READOUT NUMBER": 67.2}

INPUT: Given the entry N#Cc1c(NC(=O)N/N=C/c2ccccc2)sc2c1CCCC2 , report its measured inhibition.
OUTPUT: 31.4

###

system: Saccharomyces cerevisiae; experiment: Inhibition of Saccharomyces cerevisiae alpha-glucosidase assessed as decrease in release of p-nitrophenol at 100 uM using pNPG as substrate preincubated for 15 min followed by substrate addition and measured after 5 mins by spectrophotometric method relative to control; settings: time 20.0 min
EXPERIMENTAL READOUT: inhibition (%)
Numeric answer only, unit % assumed.

Below are worked cases with known answers.
{"SMILES NOTATION": "N#Cc1c(NC(=O)N/N=C/c2ccccc2OCc2ccccc2)sc2c1CCCC2", "inhibition, %": 48}
{"SMILES NOTATION": "CCN(CC)c1ccc(/C=N/NC(=O)Nc2sc3c(c2C#N)CCCC3)c(O)c1", "inhibition, %": 64.2}
{"SMILES NOTATION": "Cc1ccc(/C=N/NC(=O)Nc2sc3c(c2C#N)CCCC3)cc1", "inhibition, %": 85.1}
{"SMILES NOTATION": "COc1cc(/C=N/NC(=O)Nc2sc3c(c2C#N)CCCC3)cc(OC)c1O", "inhibition, %": 0.7}

Proceed to the following item.
INPUT: Please look up its inhibition: N#Cc1c(NC(=O)N/N=C/c2ccc3c(c2)OC=CO3)sc2c1CCCC2
OUTPUT: 35.7

###

assay: Inhibition of Saccharomyces cerevisiae alpha-glucosidase assessed as decrease in release of p-nitrophenol using pNPG as substrate preincubated for 15 min followed by substrate addition and measured after 5 mins by spectrophotometric method
As shown below, each of these molecules has a reported IC50 value.
Number in µM, nothing else.

INPUT: Which IC50 reading was recorded for the molecule N#Cc1c(NC(=O)N/N=C/c2ccc(O)cc2)sc2c1CCCC2 ?
OUTPUT: 20.7

INPUT: How about Cc1ccc(/C=N/NC(=O)Nc2sc3c(c2C#N)CCCC3)cc1 ?
OUTPUT: 29.8

###

assay: Inhibition of Saccharomyces cerevisiae alpha-glucosidase assessed as decrease in release of p-nitrophenol using pNPG as substrate preincubated for 15 min followed by substrate addition and measured after 5 mins by spectrophotometric method
EXPERIMENTAL READOUT: pIC50
Worth noting: pIC50 values are minus log10 of concentrations stated in mol/L.

These solved cases illustrate the format of a correct answer.
{"COMPOUND": "N#Cc1c(NC(=O)N/N=C/c2ccc(OCc3ccccc3)cc2)sc2c1CCCC2", "READOUT NUMBER": 4.58}
{"COMPOUND": "N#Cc1c(NC(=O)N/N=C/c2ccc(O)c(O)c2O)sc2c1CCCC2", "READOUT NUMBER": 4.75}
{"COMPOUND": "CCN(CC)c1ccc(/C=N/NC(=O)Nc2sc3c(c2C#N)CCCC3)c(O)c1", "READOUT NUMBER": 4.49}
{"COMPOUND": "Cc1cc(C)c(/C=N/NC(=O)Nc2sc3c(c2C#N)CCCC3)c(C)c1", "READOUT NUMBER": 4.30}
{"COMPOUND": "N#Cc1c(NC(=O)N/N=C/c2cc(O)cc(O)c2)sc2c1CCCC2", "READOUT NUMBER": 4.94}
{"COMPOUND": "CCN(CC)c1ccc(/C=N/NC(=O)Nc2sc3c(c2C#N)CCCC3)cc1", "READOUT NUMBER": 4.49}

INPUT: What value of pIC50 has been reported for the following compound? C[C@H]1O[C@H](O[C@H]2[C@H](O)[C@@H](O)[C@@H](O[C@H]3[C@H](O)[C@@H](O)C(O)O[C@@H]3CO)O[C@@H]2CO)[C@H](O)[C@@H](O)[C@@H]1N[C@H]1C=C(CO)[C@@H](O)[C@H](O)[C@H]1O (some centres not stated) [ACARBOSE]
OUTPUT: 3.36

meta.source: ChEMBL document CHEMBL5030554
